- experimentalProtocol: NCI Yeast Anticancer Drug Screen. Data for the mec2-1 strain (AID 157)
- studyConditions: S. cerevisiae mec2-1 strain, at 50.0 µM (retest, dose inferred, filed as 5.0)
This is part of a sample that, as a whole, favours compounds with a hit. Of some 79,000 tested, about 15% had one in any assay. Activity calls are given as the source filed them. Cut-off read from the data, not from the text of the source: active = growth inhibition above about 70%; inactive = the rest.
Log the outcome using a class from label 1 = active, label 0 = inactive

Any idea what this test logged for `CC(=C/c1ccccc1)/C=C1/NC(=S)N(/C=C2\C(=O)Oc3ccccc3C2=O)C1=O` ?
label 0

Now consider `C=C1CC[C@H]2C(C)=CC[C@@H]3[C@H](OC(=O)[C@H]3CN3CCN(c4ccc(C)c([N+](=O)[O-])c4)CC3)[C@@H]12` .
label 0

Now consider `CCOC(=O)c1nc(SC)sc1NC(=O)c1ccccc1Cl` .
label 0

Now consider `NS(=O)(=O)c1ccc(Nc2c3ccccc3nc3c(C(=O)NC(CO)(CO)CO)cccc23)cc1` .
label 0

Now consider `Oc1cc(CNCc2ccccc2)c(O)c(CNCc2ccccc2)c1` .
label 0

Now consider COc1ccc(C(=O)NCCN2CCN3Cc4[nH]c5ccccc5c4CC3C2)cc1 (configuration not stated) .
label 0

Now consider `Cc1ccc(-c2n[nH]c(=O)n2/N=C\c2ccccc2)cc1` .
label 0

Now consider `CC(=O)OCC(C(N)=O)(c1ccccc1)c1ccccc1` .
label 0

Now consider `COC1=C(Br)C(=O)N/C1=C(\OC)c1ccccc1` .
label 0

Now consider CC(C)CC(N)C(=O)NNc1ccccc1 (configuration not stated) .
label 1

Now consider `COc1ccc(/C=C/C(C)=N/NC(=S)NCC(C)C)cc1` .
label 0

Now consider `O/N=C1/CCCC/C1=C\c1ccc(Cl)c(Cl)c1` .
label 1
